SYSTEM_UNDER_TEST: T1, 284B
T1 construct: also called LHD284 B; LHD284 chainB
T1 chain: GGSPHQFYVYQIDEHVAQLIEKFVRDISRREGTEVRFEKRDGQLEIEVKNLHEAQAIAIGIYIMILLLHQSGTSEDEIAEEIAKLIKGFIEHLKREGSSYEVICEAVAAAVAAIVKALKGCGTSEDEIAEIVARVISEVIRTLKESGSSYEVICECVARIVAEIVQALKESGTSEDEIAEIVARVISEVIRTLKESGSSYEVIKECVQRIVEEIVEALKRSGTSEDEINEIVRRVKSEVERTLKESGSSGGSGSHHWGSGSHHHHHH
PROTOCOL_SUMMARY: BLI, steady state fit
MEASUREMENT_NAME: pKd
Just the number, please; pKd means minus log10 of the concentration in mol/L.

Input LHD284 chainA (designed binder, also called LHD284A) TDELLERLRQLFEELHERGTIIIVEVHINGERQTKYLILAPKEELKKHLERIREKIEREGSSEVEVKVTSGGTTWTFNEK , output reported pKd. 7.01
